Heads up, these compounds all have IC50 values measured for σ receptor (Rattus norvegicus).
Give the value, in units of nM, as a plain number.

// solved cases for IC50 follow
>  <compound>
COc1ccc(Cc2ccc(C3C(C(=O)NCC45CC6CC(CC(C6)C4)C5)c4ccccc4C(=O)N3C[C@H]3CC[C@H](C(N)=O)CC3)o2)cc1 (stereo partly drawn) [Pool 2]

>  <unit>
nM

>  <IC50>
68

$$$$
>  <compound>
COc1ccc(Cc2ccc(C3C(C(=O)NCC45CC6CC(CC(C6)C4)C5)c4ccccc4C(=O)N3CC(N)=O)o2)cc1 (stereo not drawn) [Pool 6]

>  <unit>
nM

>  <IC50>
124

$$$$

Entry COc1ccc(Cc2ccc(C3C(C(=O)NCC45CC6CC(CC(C6)C4)C5)c4ccccc4C(=O)N3Cc3ccc(C(N)=O)cc3)o2)cc1 (stereo not drawn) [Pool 7] — recorded IC50 = 130

----------
IC50 data for σ receptor (Rattus norvegicus, UniProt Q9R0C9) follow.
Numbers only; they are read as µM.

# example entries with known answers
>  <compound>
COc1ccc(Cc2ccc(C3C(C(=O)NCC45CC6CC(CC(C6)C4)C5)c4ccccc4C(=O)N3C[C@H](N)C(N)=O)o2)cc1 (stereo partly drawn)

>  <test.target>
σ receptor (Rattus norvegicus, UniProt Q9R0C9)
Sequence (Q9R0C9 whole entry): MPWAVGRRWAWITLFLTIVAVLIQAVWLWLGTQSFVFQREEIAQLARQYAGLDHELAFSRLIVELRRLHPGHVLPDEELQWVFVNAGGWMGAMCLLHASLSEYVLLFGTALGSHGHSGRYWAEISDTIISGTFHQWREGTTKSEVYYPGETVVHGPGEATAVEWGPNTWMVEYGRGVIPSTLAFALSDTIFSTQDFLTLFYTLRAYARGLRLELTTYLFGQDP

>  <IC50 [µM]>
0.071

$$$$
>  <compound>
COc1ccc(Cc2ccc(C3C(C(=O)NCC45CC6CC(CC(C6)C4)C5)c4ccccc4C(=O)N3CCOCCOCC(N)=O)o2)cc1 (stereo not drawn)

>  <test.target>
σ receptor (Rattus norvegicus, UniProt Q9R0C9)

>  <IC50 [µM]>
0.117

$$$$
>  <compound>
COc1ccc(Cc2ccc(C3C(C(=O)NCC45CC6CC(CC(C6)C4)C5)c4ccccc4C(=O)N3CCC(N)=O)o2)cc1 (stereo not drawn)

>  <test.target>
σ receptor (Rattus norvegicus, UniProt Q9R0C9)

>  <IC50 [µM]>
0.355

$$$$
>  <compound>
COc1ccc(Cc2ccc(C3C(C(=O)NCC45CC6CC(CC(C6)C4)C5)c4ccccc4C(=O)N3CCCC[C@H](N)C(N)=O)o2)cc1 (stereo partly drawn)

>  <test.target>
σ receptor (Rattus norvegicus, UniProt Q9R0C9)

>  <IC50 [µM]>
0.15

$$$$
>  <compound>
COc1ccc(Cc2ccc(C3C(C(=O)NCC45CC6CC(CC(C6)C4)C5)c4ccccc4C(=O)N3CCCCC(N)=O)o2)cc1 (stereo not drawn)

>  <test.target>
σ receptor (Rattus norvegicus, UniProt Q9R0C9)

>  <IC50 [µM]>
0.231

$$$$

Let's switch to this compound now.
Record COc1ccc(Cc2ccc(C3C(C(=O)NCC45CC6CC(CC(C6)C4)C5)c4ccccc4C(=O)N3CCCCCCC(N)=O)o2)cc1 (stereo not drawn) / σ receptor (Rattus norvegicus, UniProt Q9R0C9), IC50 recorded as 0.056
